- System: Setaria viridis (SETVI)
- assay_details: Post-emergence herbicidal action against SETVI
- Format: in vivo
- test_context: dosage 80 g/ha
property_name: Post-emergence action against SETVI in %
Write the figure, then the unit, nothing else.

Post-emergence action against SETVI in % reading for "CCOC(=O)CN(C)S(=O)(=O)NC(=O)COc1nn(-c2ncccc2F)c(-c2ccc(F)nc2)c1Br" : 80%

Post-emergence action against SETVI in % reading for "COC(=O)[C@H](C)NC(=O)COc1nn(-c2ccccn2)c(-c2ccc(F)nc2)c1Cl" : 80%

Post-emergence action against SETVI in % reading for "O=C(COc1nn(-c2ncccc2F)c(-c2ccc(F)nc2)c1C1CC1)OCC1COC1" : 90%

Post-emergence action against SETVI in % reading for "CCOC(=O)CSc1nn(-c2ccccn2)c(-c2cncc(F)c2)c1Cl" : 90%

Post-emergence action against SETVI in % reading for "C[C@@H](Oc1nn(-c2ncccc2F)c(-c2ccc(F)nc2)c1Br)C(=O)OCc1ccccn1" : 80%

Post-emergence action against SETVI in % reading for "CCOC(=O)CNC(=O)COc1nn(-c2ncccc2F)c(-c2ccc(OC)nc2)c1Br" : 80%

Post-emergence action against SETVI in % reading for "Cc1cccnc1-n1nc(OCC(=O)O)c(Br)c1-c1cncc(F)c1" : 90%

Post-emergence action against SETVI in % reading for "O=C(O)COc1nn(-c2nc(F)ccc2F)c(-c2ccc(F)nc2)c1C1CC1" : 80%

The measurements presented in this section are drawn from patent US20240041042A1.
